# Test target: ERα (Homo sapiens (Human))
# Sequence (P03372 whole entry): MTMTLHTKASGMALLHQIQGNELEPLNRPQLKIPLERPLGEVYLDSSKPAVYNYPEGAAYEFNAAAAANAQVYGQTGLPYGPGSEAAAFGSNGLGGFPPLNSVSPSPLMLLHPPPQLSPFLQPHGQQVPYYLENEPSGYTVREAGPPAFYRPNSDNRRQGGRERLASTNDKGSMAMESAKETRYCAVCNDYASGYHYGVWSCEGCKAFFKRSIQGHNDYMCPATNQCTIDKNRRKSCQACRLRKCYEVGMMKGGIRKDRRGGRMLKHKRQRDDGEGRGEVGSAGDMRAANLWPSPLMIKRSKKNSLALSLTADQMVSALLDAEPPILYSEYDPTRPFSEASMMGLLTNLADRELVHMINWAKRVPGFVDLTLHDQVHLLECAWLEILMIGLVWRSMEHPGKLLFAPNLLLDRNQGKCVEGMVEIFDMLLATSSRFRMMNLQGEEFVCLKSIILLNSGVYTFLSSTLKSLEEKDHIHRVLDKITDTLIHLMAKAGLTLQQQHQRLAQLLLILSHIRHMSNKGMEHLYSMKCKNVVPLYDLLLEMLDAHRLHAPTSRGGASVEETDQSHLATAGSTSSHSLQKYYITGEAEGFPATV
# Experiment summary: ERα degradation (MCF7 cells), in-cell Western
# Condition summary: inflection point of the degradation in response to ligand concentration, MCF7 cells
In this section we review reported IC50 values for a set of molecules.
Give the value in nM but do not write nM after it.

> print(dat)
                                   molecule  metric.name  value
1  O=C(O)/C=C/c1ccc(Oc2c(-c3ccccc3C(F)(F)F)sc3cc(O)ccc23)cc1 [Example 8]         IC50      1

Query :: Please give measured IC50 of the following entry: CCC(C)c1ccccc1-c1sc2cc(O)ccc2c1Oc1ccc(/C=C/C(=O)O)cc1 (stereo not shown) [Example 86]
Result :: 0.2

Query :: Please give measured IC50 of the following entry: Cc1noc(C)c1-c1sc2cc(O)ccc2c1Oc1ccc(/C=C/C(=O)O)cc1 [Example 15]
Result :: 12

Query :: Please give measured IC50 of the following entry: Cc1c(O)cccc1-c1sc2cc(O)ccc2c1Oc1ccc(/C=C/C(=O)O)cc1 [Example 16]
Result :: 6
